Value source: paper PMC3515450

target: caspase-6 (Homo sapiens); construct: Residues 24-179 and 194-293 from caspase-6 cDNA (Origene) were cloned into pET-24b and pET-23b vectors; 6x histidine tag (C); made in house; host or cells: E. coli BL21 (DE3) pLysS; test: Caspase-6 enzymatic assay with fluorogenic tetrapeptide substrates; format: biochemical; conditions: caspase-6, (DEVD)2R110 substrate; read-out: IC50
pIC50: −log10 of the molar value.

[
  {
    "smiles.entry": "COc1ccc(-c2cc(C(=O)N[C@@H](CO)Cc3cccc(C#N)c3)co2)cc1OC",
    "pIC50": 6.32
  }
]

----------
biological target: caspase-6 (Homo sapiens, UniProt P55212); construct: Residues 24-179 and 194-293 from caspase-6 cDNA (Origene) were cloned into pET-24b and pET-23b vectors; 6x histidine tag (C); made in house; host or cells: E. coli BL21 (DE3) pLysS; experiment: Caspase-6 enzymatic assay with fluorogenic tetrapeptide substrates; format: biochemical; details: caspase-6, monovalent VEID-AMC substrate; read-out: IC50
quantity.name: IC50 (µM)

[
  {
    "smiles.entry": "COc1ccc(-c2cc(C(=O)N[C@@H](CO)Cc3cccc(C#N)c3)co2)cc1OC",
    "meas.value": 14
  }
]

----------
Biological target: caspase-6/(VEID)2R110 Michaelis complex (Homo sapiens, UniProt P55212, C163A)
Construct: Avi-tagged zymogen C163A-caspase-6 was processed to mature C163A-caspase-6 by the addition of active caspase-3 and caspase-6
Sequence (P55212 24-179 C163A): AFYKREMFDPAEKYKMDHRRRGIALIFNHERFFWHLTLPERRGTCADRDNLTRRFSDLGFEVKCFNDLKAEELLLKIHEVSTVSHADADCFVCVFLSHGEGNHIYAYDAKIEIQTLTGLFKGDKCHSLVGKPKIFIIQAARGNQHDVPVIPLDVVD
Sequence (P55212 194-293): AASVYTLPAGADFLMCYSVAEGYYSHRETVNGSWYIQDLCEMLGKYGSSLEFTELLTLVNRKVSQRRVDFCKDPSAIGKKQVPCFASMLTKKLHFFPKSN
Experiment: SPR co-injection with (VEID)2R110 over apo- and C163A-caspase-6
Conditions: co-injected with (VEID)2R110, dissociation of both compound and substrate, read-out: apparent KD

[
  {
    "molecule": "COc1ccc(-c2cc(C(=O)N[C@@H](CO)Cc3cccc(C#N)c3)co2)cc1OC [Compound 3]",
    "Kd": "~200 nM"
  }
]

----------
target: caspase-6 (Homo sapiens, UniProt P55212); construct: Residues 24-179 and 194-293 from caspase-6 cDNA (Origene) were cloned into pET-24b and pET-23b vectors; 6x histidine tag (C); made in house; host or cells: E. coli BL21 (DE3) pLysS; experiment: Caspase-6 enzymatic assay with fluorogenic tetrapeptide substrates; assay type: biochemical; conditions: caspase-6, (IETD)2R110 substrate; read-out: inhibition of (IETD)2R110 cleavage
quantity.name: IC50

[
  {
    "molecule": "COc1ccc(-c2cc(C(=O)N[C@@H](CO)Cc3cccc(C#N)c3)co2)cc1OC [Compound 3]",
    "system.under.test": "caspase-6 (Homo sapiens, UniProt P55212)",
    "meas.value": "~100 µM"
  }
]

----------
target: caspase-6 (Homo sapiens, UniProt P55212); construct: Residues 24-179 and 194-293 from caspase-6 cDNA (Origene) were cloned into pET-24b and pET-23b vectors; 6x histidine tag (C); made in house; host or cells: E. coli BL21 (DE3) pLysS; experiment: Caspase-6 enzymatic assay with fluorogenic tetrapeptide substrates; assay type: biochemical; settings: caspase-6, (WEHD)2R110 substrate; not inhibited up to this concentration; read-out: inhibition of (WEHD)2R110 cleavage
quantity.name: IC50

[
  {
    "compound": "COc1ccc(-c2cc(C(=O)N[C@@H](CO)Cc3cccc(C#N)c3)co2)cc1OC [Compound 3]",
    "meas.value": "> 100 µM"
  }
]
